measured.target: HLA-A*03:01
test.details: IEDB peptide-MHC binding, purified MHC/direct/fluorescence; filed as Kd, often an IC50 or EC50 that approximates it; bounds were set here for any values at or beyond the usual limits of such assays
conditions.used: source organism: Rickettsia bellii RML369-C
parameter: Kd

Qu. Missing value: Kd, HLA-A*03:01, entry NPLEIYQEI . Fill in?
Ans. ≥ 20 µM

* * *

measured.target: HLA-A*02:06
test.details: IEDB peptide-MHC binding, purified MHC/competitive/radioactivity; filed as Kd, often an IC50 or EC50 that approximates it; bounds were set here for any values at or beyond the usual limits of such assays
conditions.used: source organism: Homo sapiens
parameter: pKd
One number for each entry, as −log10 of the molar value.

SLIGSKTQI 4.97

Qu. // pKd lookup, key: NLPIYSEEI
Ans. 7.56
